test: Drug metabolism in rat skin homogenate assessed as compound remaining after 2 hrs by HPLC analysis; type: ADME, tissue-based, Zone of skin; settings: read-out: Drug metabolism

{"columns": ["smiles.record", "endpoint.unit", "remaining at 2 h"],
 "data": [
  ["CCC(=O)O[C@]1(C(=O)CO)CC[C@H]2[C@@H]3CCC4=CC(=O)CC[C@]4(C)[C@H]3CC[C@@]21C", "%", 69.5]
]}

---

assay: Drug metabolism in rat plasma assessed as compound remaining after 5 mins by HPLC analysis; type: ADME, cell-free; settings: read-out: Drug metabolism
quantity: remaining at 5 min (%)

{"columns": ["smiles.record", "recorded.measurement"],
 "data": [
  ["CCC(=O)O[C@]1(C(=O)CO)CC[C@H]2[C@@H]3CCC4=CC(=O)CC[C@]4(C)[C@H]3CC[C@@]21C", 90]
]}
